Compiled from multiple publications: IC50 readings for human LOXL2 (Homo sapiens).

Illustrative cases are given below, each with its answer.
{"smilesRepresentation": "NCc1cc(OCc2cccc(C(=O)Nc3ccccc3)c2)ncn1", "IC50": "< 100 nM"}
{"smilesRepresentation": "NCc1cc(OCc2cccc(C(=O)NCCN3CCOC3=O)c2)ncn1", "IC50": "< 100 nM"}
{"smilesRepresentation": "NCc1cc(Oc2cccc3c2ccn3CC(=O)N2CCCCC2)ncn1", "IC50": "100 to 1000 nM"}

Ask: Give IC50 (human LOXL2 (Homo sapiens)) of the following compound: NCc1cc(OCc2cccc(C(=O)NCc3cccnc3)c2)ncn1
Result: < 100 nM

Ask: Provide value of IC50 for this record tested with human LOXL2 (Homo sapiens): Cl.NCc1cc(Oc2cccc(C(=O)NCc3ccnc(Cl)c3)c2)ncn1
Result: < 100 nM

Ask: Enter reported IC50 observed with human LOXL2 (Homo sapiens) for C#C[C@H](CC(=O)OC)NC(=O)c1cccc(Oc2cc(CN)cc(C(F)(F)F)n2)c1
Result: < 300 nM

Ask: Could you share what IC50 was measured for COCc1nn(C/C(F)=C/CN)c(C)c1Cc1ccc(S(=O)(=O)N(C)C)c(Cl)c1 , tested on human LOXL2 (Homo sapiens)?
Result: < 1000 nM

Ask: Find IC50 (human LOXL2 (Homo sapiens)) for the entry COc1ccc(Cn2cc(C)c3c(Oc4cc(CN)ncn4)cccc32)cn1
Result: < 100 nM

Ask: // map NCc1cc(Oc2cccc(C(=O)NCc3cccnc3)c2)ncn1 to recorded IC50 (system: human LOXL2 (Homo sapiens))
Result: < 100 nM

====

pIC50: −log10 of the molar value.
human LOXL2 (Homo sapiens, UniProt Q9Y4K0) pIC50, compiled from various sources.

Consider the worked cases shown below.
{"compound": "CN1CC(CNC(=O)c2cccc(COc3cc(CN)ncn3)c2)OC1=O (racemic)", "pIC50": "> 7.00"}
{"compound": "NCc1cc(OCc2cccc(C(=O)NCCn3cnnn3)c2)ncn1", "pIC50": "> 7.00"}
{"compound": "Cn1c(CNC(=O)c2cccc(COc3cc(CN)ncn3)c2)cc2ccccc21", "pIC50": "> 7.00"}
{"compound": "NCc1cc(Oc2cccc3[nH]ccc23)ncn1", "pIC50": "> 7.00"}
{"compound": "COc1ccc(Cn2c(C)cc3c(Oc4cc(CN)ncn4)cccc32)cn1", "pIC50": "> 7.00"}

Ask: What pIC50 appears in the records for this compound with human LOXL2 (Homo sapiens, UniProt Q9Y4K0)? NCc1cc(Oc2cccc(C(=O)NCc3ccc4ccccc4n3)c2)ncn1
Result: > 7.00

Ask: Return pIC50 measured with human LOXL2 (Homo sapiens, UniProt Q9Y4K0) given this compound: NCc1cc(Oc2cccc(C(=O)NCCN3CCOC3=O)c2)nc(C(F)(F)F)c1
Result: > 6.52

Ask: State its pIC50 on human LOXL2 (Homo sapiens, UniProt Q9Y4K0): NCc1cc(NCc2cccc(C(=O)NCc3cc4ccccc4s3)c2)ncn1
Result: > 7.00

Ask: Checklist item: pIC50 tested on human LOXL2 (Homo sapiens, UniProt Q9Y4K0), entry Cc1c(Cc2ccc(S(=O)(=O)N(C)C)c(Cl)c2)c(Cl)nn1C/C(F)=C/CN , value?
Result: > 6.00
